Below is a list of entries, each paired with its recorded IC50 value.
Molecular target: NF-kB p65/p50 heterodimer (RelA/NFKB1) (Homo sapiens, UniProt Q04206;P19838 Q04206:1-551,P19838:1-433)
Sequence (Q04206 whole entry, chain 1 of 2): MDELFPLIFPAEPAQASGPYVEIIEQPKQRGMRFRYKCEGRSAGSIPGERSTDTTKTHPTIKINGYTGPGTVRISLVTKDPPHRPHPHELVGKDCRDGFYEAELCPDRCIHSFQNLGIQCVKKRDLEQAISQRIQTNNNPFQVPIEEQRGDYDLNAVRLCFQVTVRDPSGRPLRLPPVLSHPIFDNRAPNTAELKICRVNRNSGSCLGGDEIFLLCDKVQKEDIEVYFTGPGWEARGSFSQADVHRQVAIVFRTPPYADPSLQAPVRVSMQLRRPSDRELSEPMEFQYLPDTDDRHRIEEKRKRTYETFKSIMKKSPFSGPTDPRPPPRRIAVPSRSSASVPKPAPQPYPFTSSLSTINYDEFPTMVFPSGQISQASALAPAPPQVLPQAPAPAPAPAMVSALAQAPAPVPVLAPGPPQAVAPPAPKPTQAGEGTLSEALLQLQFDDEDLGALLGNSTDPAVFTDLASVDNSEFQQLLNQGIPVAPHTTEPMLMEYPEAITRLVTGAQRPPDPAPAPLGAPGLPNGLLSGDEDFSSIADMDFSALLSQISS
Sequence (P19838 1-433, chain 2 of 2): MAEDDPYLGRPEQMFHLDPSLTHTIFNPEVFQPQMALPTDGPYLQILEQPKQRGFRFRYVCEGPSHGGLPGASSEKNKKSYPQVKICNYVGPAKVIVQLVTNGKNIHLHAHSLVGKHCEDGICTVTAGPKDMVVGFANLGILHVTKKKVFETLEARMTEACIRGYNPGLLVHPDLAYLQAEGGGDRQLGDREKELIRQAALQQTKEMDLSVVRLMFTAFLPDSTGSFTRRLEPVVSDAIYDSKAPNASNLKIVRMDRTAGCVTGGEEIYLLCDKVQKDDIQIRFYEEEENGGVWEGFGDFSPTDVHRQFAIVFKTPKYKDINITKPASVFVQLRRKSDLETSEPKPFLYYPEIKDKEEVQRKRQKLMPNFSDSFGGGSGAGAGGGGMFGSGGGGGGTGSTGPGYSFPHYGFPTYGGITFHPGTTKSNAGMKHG
Test: EMSA; competition vs 32P 113/114 probe
Settings: protein: extract; tags: none; nuclear extract of LPS-stimulated THP-1 cells
Number in fold molar excess, nothing else.

Use these answered entries as a reference point.
{"columns": ["Binder", "Endpoint", "Reported measurement"],
 "data": [
  ["153/154 H5/PO (dsDNA, strand 153 PS at the 5 3'-most linkages; strand 154 PO) DNA 1: AGTTGAGGACTTTCCAGGC DNA 2: GCCTGGAAAGTCCTCAACT", "IC50", 59],
  ["decoy 145 A-Z (dsDNA) DNA 1: AGTTGAGGGACTTTCCAGGC DNA 2: GCCTGGAAAGTCCCTCAACT", "IC50", 8],
  ["153/154 H5/H5 (dsDNA, PS at the 5 3'-most linkages of each strand) DNA 1: AGTTGAGGACTTTCCAGGC DNA 2: GCCTGGAAAGTCCTCAACT", "IC50", 50],
  ["153/154 H9/H9 (dsDNA, PS at the 9 3'-most linkages of each strand) DNA 1: AGTTGAGGACTTTCCAGGC DNA 2: GCCTGGAAAGTCCTCAACT", "IC50", 17]
]}

Req: Find the recorded IC50 belonging to decoy 265 I-Z (dsDNA) DNA 1: AGTTGAGGATTTCCCAGGC DNA 2: GCCTGGGAAATCCTCAACT and report it.
Resp: 54

Req: Find the recorded IC50 belonging to 153/154 H8/H8 (dsDNA, PS at the 8 3'-most linkages of each strand) DNA 1: AGTTGAGGACTTTCCAGGC DNA 2: GCCTGGAAAGTCCTCAACT and report it.
Resp: 29

Req: Find the recorded IC50 belonging to decoy 155 E-V (dsDNA) DNA 1: TCGGACTTTCCTC DNA 2: GAGGAAAGTCCGA and report it.
Resp: 81

Req: Find the recorded IC50 belonging to decoy 153/154 E-Z (dsDNA) DNA 1: AGTTGAGGACTTTCCAGGC DNA 2: GCCTGGAAAGTCCTCAACT and report it.
Resp: 62.4

Req: Find the recorded IC50 belonging to 153/154 PS/PS (dsDNA, full PS, both strands) DNA 1: AGTTGAGGACTTTCCAGGC DNA 2: GCCTGGAAAGTCCTCAACT and report it.
Resp: 5
